Record form. Attribute: melting point. Fill in for each entry.

The examples below pair each entry with its known result.
1) CC(O)COc1cccc([N+](=O)[O-])c1C#N (stereo unspecified)
121 to 124 °C
2) Nc1ccc(Cn2cnc3c(-c4ccco4)ncnc32)cc1
195 to 197 °C

I would be grateful if you could provide melting point for each of the following entries.
1. CCOCc1nc(C(=O)OCC)c(C(=O)OCC)[nH]1
2. O=C(Nc1ccc2cc(CN3CCCC3)cnc2c1)c1ccc(-c2ccccc2)nc1
3. COc1cc(OC)c2c(=O)[nH]c(-c3ccc(OCCO)c(-c4ccccc4S(C)(=O)=O)n3)nc2c1

Reply:
1. 60 to 61 °C
2. 208 to 210 °C
3. 92 to 93 °C

I would be grateful if you could provide melting point for each of the following entries.
1. COC[C@H]1O[C@H](ONC(=O)c2nc(-c3ccc(Cl)c(OC)c3F)cc(N)c2Cl)[C@H](OC)[C@@H](OC)[C@@H]1OC
2. CCOC(=O)COc1ccc(Nc2nccc(-c3ccncc3)n2)cc1

Reply:
1. 184 to 187 °C
2. 109 to 111 °C

I would be grateful if you could provide melting point for each of the following entries.
1. CC(=NO)C(C)(C)NCCN(C)NC(C)(C)C(C)=NO
2. CSc1cccc(SC)c1S(=O)(=O)NC(C)(C)C

Reply:
130 to 131 °C
182 to 185 °C

I would be grateful if you could provide melting point for each of the following entries.
1. Cc1ccc2c(c1)C1(OCCCO1)C(=O)N2
2. N#CC1=C(C2=CCNCC2)Nc2n[nH]cc2C1c1cccc(C#N)c1Br (stereo unspecified)

Reply:
128 to 130 °C
226 °C

* * *

recorded endpoint: melting point

1) O=C(O)CCSC(CCCc1ccccc1)c1ccc(OCc2ccc3ccccc3n2)cc1 (stereo not given)
97 to 100 °C
2) C[C@@H]1S[C@@H](C(=O)Nc2ccc(CN3CCSCC3)cc2)Cc2cc3c(cc2C1=O)OCO3
204 to 206 °C
3) COc1cc(-c2ccc(F)cc2)nc(-c2ccccn2)n1
97 to 98 °C
4) CC(=O)n1cc(-c2ccccc2)nc1-c1ccccc1C
102 to 104 °C
5) O=C(O)c1ccc(C(=O)O)c(OC(F)(F)C(F)OC(F)(F)C(F)(OC(F)(F)C(F)(F)C(F)(F)F)C(F)(F)F)c1 (stereo not given)
236 to 239 °C
6) CC[C@@H](Nc1nc(NCc2ccccc2)c2ncn(C(C)C)c2n1)[C@H](C)O
42 to 44 °C

I would be grateful if you could provide melting point for each of the following entries.
1. O=S1(=O)CCCN1CCc1ccncc1
2. COc1cc2c(cc1OC)C1(CCC(=O)NC1=O)CCC2=O (stereo not given)
3. N#Cc1c(-c2ccc(Cl)c(Cl)c2)[nH]c(C(F)(F)F)c1C(F)(F)F
4. COc1c(CC(C)(C)C(=O)O)n(Cc2ccc(Cl)cc2)c2ccc(O)cc12

Reply:
["70 °C", "269 to 271 °C", "205 to 208 °C", "137 °C"]

* * *

recorded endpoint: melting point

I would be grateful if you could provide melting point for each of the following entries.
1. CC(=O)Nc1ccc(F)cc1OCCOc1ccc([N+](=O)[O-])cc1F
2. CNC(=S)NNCC1CC2c3cccc4[nH]cc(c34)CC2N(C)C1 (stereo not given)
3. O=C(O)c1ccc(OCCNC(=O)C2Cc3ccccc3N2S(=O)(=O)c2ccc(-c3cccc(C(F)(F)F)c3)cc2)c(F)c1 (stereo not given)

Reply:
1. 192 to 194 °C
2. 220 to 221 °C
3. 96 to 104 °C

I would be grateful if you could provide melting point for each of the following entries.
1. O=C(c1ccccc1)c1ncc2n1CCC2C(=O)O (stereo not given)
2. CCONC(=O)c1cc(Br)c(Br)s1

Reply:
1: 232 to 233 °C; 2: 117 to 119 °C
